- system.name: HMG-CoA reductase [Enterococcus faecalis] (UniProt Q9FD70)
- experimental.protocol: inhibitors of E. faecalis class II HMGR, confirmation, biochemical, Enterococcus faecalis (AID 1233)
- experimental.context: purified E. faecalis HMGR, NADPH absorbance 340 nm kinetics; series mostly up to 100 µM
Measured potencies and affinities stand elsewhere. Activity calls are given as the source filed them.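 Rule for the calls: active = a dose-response curve fit returns a half-maximal inhibitory concentration, extrapolated values included; inactive = the fit returns no such concentration.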

compound.string: O=C(COC(=O)CNC(=O)c1ccccc1F)Nc1ccc2c(c1)OCCO2
system.name: HMG-CoA reductase [Enterococcus faecalis] (UniProt Q9FD70)
outcome: inactive
//
compound.string: CCOC(=O)c1cnn(-c2nc(-c3ccccc3)cs2)c1C(F)(F)F
system.name: HMG-CoA reductase [Enterococcus faecalis] (UniProt Q9FD70)
outcome: inactive
//
compound.string: Cc1cc(NC(=O)c2c(F)cccc2Cl)no1
system.name: HMG-CoA reductase [Enterococcus faecalis] (UniProt Q9FD70)
outcome: inactive
//
compound.string: Cc1ccc(S(=O)(=O)N2CCCCC2)cc1C(=O)N1CCN(c2ccccn2)CC1
system.name: HMG-CoA reductase [Enterococcus faecalis] (UniProt Q9FD70)
outcome: inactive
//
compound.string: CCOc1ccc(/C=N/NC(=O)CC(=O)Nc2ccc(Cl)c(Cl)c2)cc1
system.name: HMG-CoA reductase [Enterococcus faecalis] (UniProt Q9FD70)
outcome: inactive
//
compound.string: Cc1cccc(S(=O)(=O)Nc2ccc(-c3cn4ccccc4n3)cc2)c1
system.name: HMG-CoA reductase [Enterococcus faecalis] (UniProt Q9FD70)
outcome: inactive
//
compound.string: CCOCC(=O)OCC(=O)Nc1cc(OC)c([N+](=O)[O-])cc1C
system.name: HMG-CoA reductase [Enterococcus faecalis] (UniProt Q9FD70)
outcome: inactive
//
compound.string: O=C(Nc1ccc(Cl)cc1)Nc1nnc(-c2ccncc2)s1
system.name: HMG-CoA reductase [Enterococcus faecalis] (UniProt Q9FD70)
outcome: inactive
//
compound.string: O=C(COc1ccccc1C(=O)N/N=C\c1ccc(O)c(O)c1)N/N=C/c1ccc(O)c(O)c1
system.name: HMG-CoA reductase [Enterococcus faecalis] (UniProt Q9FD70)
outcome: inactive
//
compound.string: C[C@H]1[C@H](C)CC[C@]2(C(=O)O)CC[C@]3(C)C(=CC[C@@H]4[C@@]5(C)C[C@@H](O)[C@H](O)C(C)(C)[C@@H]5CC[C@]43C)[C@H]12
system.name: HMG-CoA reductase [Enterococcus faecalis] (UniProt Q9FD70)
outcome: inactive

###

- system.name: HMG-CoA reductase [Enterococcus faecalis] (UniProt Q9FD70)
- experimental.protocol: inhibitors of E. faecalis class II HMGR, confirmation, biochemical, Enterococcus faecalis (AID 1233)
- experimental.context: purified E. faecalis HMGR, NADPH absorbance 340 nm kinetics; series mostly up to 100 µM
Measured potencies and affinities stand elsewhere. Activity calls are given as the source filed them.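 How the source made its calls: active means a dose-response curve fit returns a half-maximal inhibitory concentration, extrapolated values included; inactive means the fit returns no such concentration.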

compound: O=C1c2ccccc2C(=O)N1CCN1CCCCC1
system.name: HMG-CoA reductase [Enterococcus faecalis] (UniProt Q9FD70)
outcome: inactive
//
compound: O=C(NCC(=O)N(Cc1cccs1)C(C(=O)NC1CCCC1)c1ccncc1)c1ccco1 (stereo unspecified)
system.name: HMG-CoA reductase [Enterococcus faecalis] (UniProt Q9FD70)
outcome: inactive
//
compound: Cc1cnc(NC(=O)c2cc3ccccc3o2)s1
system.name: HMG-CoA reductase [Enterococcus faecalis] (UniProt Q9FD70)
outcome: inactive
//
compound: COc1ccc(/C=N/Nc2nccnc2Cl)c(OC)c1
system.name: HMG-CoA reductase [Enterococcus faecalis] (UniProt Q9FD70)
outcome: inactive
//
compound: CCc1cccc2c(C#N)cn(CCOc3ccccc3OC)c12
system.name: HMG-CoA reductase [Enterococcus faecalis] (UniProt Q9FD70)
outcome: inactive
//
compound: Clc1cccc(CN2CCC(Cc3ccccc3)CC2)c1
system.name: HMG-CoA reductase [Enterococcus faecalis] (UniProt Q9FD70)
outcome: inactive

###

- system.name: HMG-CoA reductase [Enterococcus faecalis] (UniProt Q9FD70)
- experimental.protocol: inhibitors of E. faecalis class II HMGR, confirmation, biochemical, Enterococcus faecalis (AID 1233)
- experimental.context: purified E. faecalis HMGR, NADPH absorbance 340 nm kinetics; series mostly up to 100 µM
Entries with a potency or affinity are not part of this list. The source made the active and inactive calls.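 How the source made its calls: active means a dose-response curve fit returns a half-maximal inhibitory concentration, extrapolated values included; inactive means the fit returns no such concentration.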

compound: O=C(Nc1cccc(Br)c1)c1ccc2nc(N3C(=O)CCC3=O)sc2c1
outcome: inactive
--
compound: O=C(CSCc1ccc(Cl)cc1)NCC1CCCO1 (stereo not drawn)
outcome: inactive
--
compound: CCc1c(C)nc2ncnn2c1NCCc1ccccc1
outcome: inactive
--
compound: O=C(Nc1ccccn1)c1cccc(S(=O)(=O)N2CCOCC2)c1
outcome: inactive
--
compound: CCCCOC(=O)c1nc[nH]c1C(=O)OCCCC
outcome: inactive
--
compound: Cc1nnc(SCc2ccccc2Cl)n1CC1CCCO1 (stereo not drawn)
outcome: inactive
--
compound: COc1cc(C)nc(Oc2ccc(OCCOc3ccccc3)nn2)n1
outcome: inactive
--
compound: Cc1ccc(-c2nc3cccnc3s2)cc1NS(=O)(=O)c1ccc2c(c1)CCCC2
outcome: inactive
--
compound: COc1cc(S(=O)(=O)Nc2ccccc2C)ccc1NC(=O)c1ccncc1
outcome: inactive
--
compound: O=C(Oc1ccccc1O)c1cccc2ccccc12
outcome: inactive
--
compound: O=C(Nc1ccc(N2CCCCC2)cc1)c1ccc2c(c1)OCCO2
outcome: inactive
--
compound: Cc1ccc(S(=O)(=O)N(C)C)cc1NC(=O)COC(=O)CCC(=O)c1cccs1
outcome: inactive
--
compound: O=C(NCC1CCCO1)c1ccc(Cl)c(F)c1F (stereo not drawn)
outcome: inactive
--
compound: COC(=O)c1ccc(C(NC(=O)OCc2ccccc2)/C(C)=C/[C@@H](C)C(=O)NCc2ccc(-c3ccccc3)cc2)cc1 (stereo partly drawn)
outcome: inactive
--
compound: O=C(CSc1nc(-c2ccccc2)cs1)N1CCc2ccccc21
outcome: inactive
--
compound: COc1ccc(N2C(=O)C(CN3CCCCC3)C2c2ccccc2)cc1 (stereo not drawn)
outcome: inactive
--
compound: C=CCn1cnc2c(nnn2-c2ccc(Cl)cc2)c1=O
outcome: inactive
--
compound: O=C(/C(=C/c1ccc(Cl)cc1)c1nc2ccccc2[nH]1)c1ccccc1
outcome: inactive
--
compound: O=C(COCc1nc2ccccc2c(=O)[nH]1)NCC1CCCCC1
outcome: inactive
--
compound: COc1ccc2oc(=Nc3ccc(C(=O)O)cc3)c(C(=O)NCc3ccco3)cc2c1
outcome: inactive
--
compound: COc1ccc(N2C(=O)CS/C2=C\[N+](=O)[O-])cc1
outcome: inactive
--
compound: O=C(O)C(Cc1ccccc1)N1C(=O)C2CCCCC2C1=O (stereo not drawn)
outcome: inactive
--
compound: CN(C)CCNC(=O)c1ccc(COc2ccc(Cl)cc2Cl)cc1
outcome: inactive

###

- system.name: HMG-CoA reductase [Enterococcus faecalis] (UniProt Q9FD70)
- experimental.protocol: inhibitors of E. faecalis class II HMGR, confirmation, biochemical, Enterococcus faecalis (AID 1233)
- experimental.context: purified E. faecalis HMGR, NADPH absorbance 340 nm kinetics; series mostly up to 100 µM
Potency and affinity values are given separately. The source made the active and inactive calls.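 Rule for the calls: active = a dose-response curve fit returns a half-maximal inhibitory concentration, extrapolated values included; inactive = the fit returns no such concentration.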
measured.metric: outcome

compound: COc1ccc2cc(C3NC(=O)c4ccccc4N3)c(Cl)nc2c1 (stereo not drawn)
result: inactive
--
compound: C=CCN1CCN(C(c2cc(OC)ccc2OC)c2nnnn2CC2CCCO2)CC1 (stereo not drawn)
result: inactive
--
compound: COc1ccccc1C(=O)NCC(=O)NC1CCCc2ccccc21 (stereo not drawn)
result: inactive
--
compound: CCOC(=O)C1CCN(C(=O)c2c(-c3ccccc3)noc2C)CC1
result: inactive
--
compound: COCCn1c(=N)c(C(=O)NCc2ccco2)cc2c(=O)n3cc(C)ccc3nc21
result: inactive
--
compound: C/C(=N\Nc1ccc(C(=O)O)cc1)c1ccc(-n2ccnc2)cc1
result: inactive
--
compound: COc1ccc(C/C(C)=N/NS(=O)(=O)c2ccc(Br)cc2)cc1
result: inactive
--
compound: Cc1ccc(Cc2cncc(O)c2)cc1S(=O)(=O)O
result: inactive
--
compound: COC(=O)C1=C(C)Nc2c(c(=O)n(C)c(=O)n2C)C1c1cccnc1 (stereo not drawn)
result: inactive
--
compound: Cn1c(CN2CCCC2)c(C#N)c2ccccc21
result: inactive
--
compound: CNc1cc(N2CCCCCC2)ccc1[N+](=O)[O-]
result: inactive
--
compound: NC(=O)c1ccc2nc(NC(=O)c3ccc(N)cc3)sc2c1
result: inactive
--
compound: COc1ccc(Cl)cc1NC(=O)CN(c1ccccc1)S(=O)(=O)N(C)C
result: inactive
--
compound: Cn1c(=O)c(C(=O)CSc2ccccc2)c(N)n(Cc2ccccc2)c1=O
result: inactive
--
compound: Cc1ccc(C(=O)NCc2ccccc2)c(F)c1F
result: inactive
--
compound: Cc1cc(C=O)c2c(c1)C=CC1(Oc3ccccc3C(=O)N1C)O2 (stereo not drawn)
result: inactive
--
compound: Cc1cc(SCn2nnc3ccccc3c2=O)nc2ccccc12
result: inactive
--
compound: Cc1nc(Nc2nc3ccccc3o2)nc2c1CCC2
result: inactive
--
compound: CCCCOc1ccccc1NC(=O)CC1SC(=NCC)N(CC)C1=O (stereo not drawn)
result: inactive
--
compound: COc1ccc(NC(=O)C2=C(C)NC(=O)NC2c2cccc(OC)c2OC)c(OC)c1 (stereo not drawn)
result: inactive
--
compound: Cc1ccc(S(=O)(=O)N2CCCC2C(=O)Nc2nc3ccccc3s2)cc1 (stereo not drawn)
result: inactive
--
compound: O=C(CCCN1C(=O)/C(=C\c2cccs2)SC1=S)Nc1ccccn1
result: inactive
--
compound: O=C(NCc1ccc2[nH]c3c(c2c1)CCCC3)c1ccc(S(=O)(=O)N2CCCC2)cc1
result: inactive

Reference for the values: PubChem BioAssay AID1233
